- Run Description: Maximum concentration (Cmax) using 20%aqueous hydroxypropyl-beta-cyclodextrin (HPbetaCD) as vehicle. compound was administered orally to nude mice at a dose of 25 mg/kg
- Assay type: ADME, organism-based
- Parameters: dose 25 mg/kg, route oral
- Conditions: mouse, in vivo, po
Assign Cmax to each entry below.
Give just the numeric value; µM need not be written.

Name the recorded Cmax of the compound listed here: CS(=O)(=O)N1CCC(CC(=O)N2CCC([C@H]3c4ncc(Br)cc4CCc4cc(Cl)cc(Br)c43)CC2)CC1
1.3

Name the recorded Cmax of the compound listed here: NS(=O)(=O)N1CCC(CC(=O)N2CCC([C@H]3c4ncc(Br)cc4CCc4cc(Cl)cc(Br)c43)CC2)CC1
3.6

Name the recorded Cmax of the compound listed here: O=C(CC1CCN(C(=O)c2ccc[n+]([O-])c2)CC1)N1CCC([C@H]2c3ncc(Br)cc3CCc3cc(Cl)cc(Br)c32)CC1
16.2

Name the recorded Cmax of the compound listed here: O=C(CC1CCN(C(=O)c2cc[n+]([O-])cc2)CC1)N1CCC([C@H]2c3ncc(Br)cc3CCc3cc(Cl)cc(Br)c32)CC1
9.81

Name the recorded Cmax of the compound listed here: NC(=O)C(=O)N1CCC(CC(=O)N2CCC([C@H]3c4ncc(Br)cc4CCc4cc(Cl)cc(Br)c43)CC2)CC1
7.1

Name the recorded Cmax of the compound listed here: NC(=O)CN1CCC(CC(=O)N2CCC([C@H]3c4ncc(Br)cc4CCc4cc(Cl)cc(Br)c43)CC2)CC1
1.94

Name the recorded Cmax of the compound listed here: NC(=O)N1CCC(CC(=O)N2CCC([C@H]3c4ncc(Br)cc4CCc4cc(Cl)cc(Br)c43)CC2)CC1
8.84

----------
- Run Description: Area under curve was determined using 20%aqueous hydroxypropyl-beta-cyclodextrin (HPbetaCD) as vehicle. Compound was administered orally to nude mice at a dose of 25 mg/kg
- Format: ADME, organism-based
- Set-up: dose 25 mg/kg, route oral
- Conditions: mouse, in vivo, po
Assign log10 of AUC to each entry below.
Recorded AUC (log10, ng·h/mL)

Name the recorded log10 of AUC of the compound listed here: NC(=O)CN1CCC(CC(=O)N2CCC([C@H]3c4ncc(Br)cc4CCc4cc(Cl)cc(Br)c43)CC2)CC1
4.09

Name the recorded log10 of AUC of the compound listed here: O=C(CC1CCN(C(=O)c2ccc[n+]([O-])c2)CC1)N1CCC([C@H]2c3ncc(Br)cc3CCc3cc(Cl)cc(Br)c32)CC1
4.85

Name the recorded log10 of AUC of the compound listed here: O=C(CC1CCN(C(=O)c2cc[n+]([O-])cc2)CC1)N1CCC([C@H]2c3ncc(Br)cc3CCc3cc(Cl)cc(Br)c32)CC1
4.20

Name the recorded log10 of AUC of the compound listed here: NC(=O)N1CCC(CC(=O)N2CCC([C@H]3c4ncc(Br)cc4CCc4cc(Cl)cc(Br)c43)CC2)CC1
4.38

Name the recorded log10 of AUC of the compound listed here: NC(=O)C(=O)N1CCC(CC(=O)N2CCC([C@H]3c4ncc(Br)cc4CCc4cc(Cl)cc(Br)c43)CC2)CC1
4.65

Name the recorded log10 of AUC of the compound listed here: CN(C)S(=O)(=O)N1CCC(CC(=O)N2CCC([C@H]3c4ncc(Br)cc4CCc4cc(Cl)cc(Br)c43)CC2)CC1
2.00

----------
Assign AUC to each entry below.
- Run Description: Area under curve was determined using 20%aqueous hydroxypropyl-beta-cyclodextrin (HPbetaCD) as vehicle. Compound was administered intravenously to nude mice at a dose of 25 mg/kg
- Assay type: ADME, organism-based
- Parameters: dose 25 mg/kg, route intravenous
- Conditions: mouse, in vivo, iv
Give just the numeric value; ng·h/mL need not be written.

Name the recorded AUC of the compound listed here: NC(=O)N1CCC(CC(=O)N2CCC([C@H]3c4ncc(Br)cc4CCc4cc(Cl)cc(Br)c43)CC2)CC1
31800

Name the recorded AUC of the compound listed here: NC(=O)CN1CCC(CC(=O)N2CCC([C@H]3c4ncc(Br)cc4CCc4cc(Cl)cc(Br)c43)CC2)CC1
20300

Name the recorded AUC of the compound listed here: CN(C)S(=O)(=O)N1CCC(CC(=O)N2CCC([C@H]3c4ncc(Br)cc4CCc4cc(Cl)cc(Br)c43)CC2)CC1
5950

----------
- Run Description: Maximum concentration (Cmax) using 0.4% Methyl cellulose (MC) as vehicle. compound was administered orally to nude mice at a dose of 25 mg/kg (micronized sample)
- Assay type: ADME, organism-based
- Parameters: dose 25 mg/kg, route oral
- Conditions: mouse, in vivo, po
Observable: Cmax (nM)
Give just the numeric value; nM need not be written.

Name the recorded Cmax of the compound listed here: O=C(CC1CCN(C(=O)c2ccc[n+]([O-])c2)CC1)N1CCC([C@H]2c3ncc(Br)cc3CCc3cc(Cl)cc(Br)c32)CC1
2270

----------
- Tested On: Protein farnesyltransferase (Homo sapiens, UniProt P49354+P49356)
- Run Description: Inhibitory activity against Hras Farnesyltransferase (FPT).
- Type: protein-complex assay
pIC50: −log10 of the molar value.
# cutoff 8 applies to pIC50; >= gives true (1), < gives false (0)

I'd appreciate it if you could say whether NC(=O)C(=O)N1CCC(CC(=O)N2CCC([C@H]3c4ncc(Br)cc4CCc4cc(Cl)cc(Br)c43)CC2)CC1 has pIC50 at least equal to 8.
true (1)

I'd appreciate it if you could say whether NC(=O)c1cncc(C(=O)N2CCC(CC(=O)N3CCC([C@H]4c5ncc(Br)cc5CCc5cc(Cl)cc(Br)c54)CC3)CC2)c1 has pIC50 at least equal to 8.
true (1)

I'd appreciate it if you could say whether O=C(O)c1cncc(C(=O)N2CCC(CC(=O)N3CCC([C@H]4c5ncc(Br)cc5CCc5cc(Cl)cc(Br)c54)CC3)CC2)c1 has pIC50 at least equal to 8.
true (1)

I'd appreciate it if you could say whether O=C(CC1CCN(S(=O)(=O)c2ccccc2)CC1)N1CCC([C@H]2c3ncc(Br)cc3CCc3cc(Cl)cc(Br)c32)CC1 has pIC50 at least equal to 8.
false (0)

I'd appreciate it if you could say whether O=C(CC1CCN(C(=O)Cn2cccc2)CC1)N1CCC([C@H]2c3ncc(Br)cc3CCc3cc(Cl)cc(Br)c32)CC1 has pIC50 at least equal to 8.
true (1)

----------
- Run Description: Area under curve was determined using 0.4% Methyl cellulose (MC) as vehicle. Compound was administered intravenously to nude mice at a dose of 25 mg/kg
- Format: ADME, organism-based
- Set-up: dose 25 mg/kg, route intravenous
- Conditions: mouse, in vivo, iv
Assign AUC to each entry below.
Give just the numeric value; ng·h/mL need not be written.

Name the recorded AUC of the compound listed here: O=C(CC1CCN(C(=O)c2cc[n+]([O-])cc2)CC1)N1CCC([C@H]2c3ncc(Br)cc3CCc3cc(Cl)cc(Br)c32)CC1
13700

Name the recorded AUC of the compound listed here: N#CCC(=O)N1CCC(CC(=O)N2CCC([C@H]3c4ncc(Br)cc4CCc4cc(Cl)cc(Br)c43)CC2)CC1
4090

Name the recorded AUC of the compound listed here: O=C(CC1CCN(C(=O)c2ccc[n+]([O-])c2)CC1)N1CCC([C@H]2c3ncc(Br)cc3CCc3cc(Cl)cc(Br)c32)CC1
62000

----------
- Run Description: Area under curve was determined using 20%aqueous hydroxypropyl-beta-cyclodextrin (HPbetaCD) as vehicle. Compound was administered intravenously to nude mice at a dose of 25 mg/kg (run time 7 hr)
- Assay type: ADME, organism-based
- Parameters: dose 25 mg/kg, route intravenous
- Conditions: mouse, in vivo, iv
Observable: AUC at 7 h (ng·h/mL)
Give just the numeric value; ng·h/mL need not be written.

Name the recorded AUC at 7 h of the compound listed here: O=C(CC1CCN(C(=O)Cn2cncn2)CC1)N1CCC([C@H]2c3ncc(Br)cc3CCc3cc(Cl)cc(Br)c32)CC1
10100

----------
- Run Description: Half life was administered by using 20%aqueous hydroxypropyl-beta-cyclodextrin (HPbetaCD) as vehicle to nude mice at a dose of 25mpk,
- Format: ADME, organism-based
- Conditions: mouse, in vivo, 25 mg/kg
Assign half-life to each entry below.
Give just the numeric value; min need not be written.

Name the recorded half-life of the compound listed here: NC(=O)CN1CCC(CC(=O)N2CCC([C@H]3c4ncc(Br)cc4CCc4cc(Cl)cc(Br)c43)CC2)CC1
240

Name the recorded half-life of the compound listed here: CN(C)C(=O)C(=O)N1CCC(CC(=O)N2CCC([C@H]3c4ncc(Br)cc4CCc4cc(Cl)cc(Br)c43)CC2)CC1
62.4

Name the recorded half-life of the compound listed here: O=C(CC1CCN(C(=O)c2cc[n+]([O-])cc2)CC1)N1CCC([C@H]2c3ncc(Br)cc3CCc3cc(Cl)cc(Br)c32)CC1
72

Name the recorded half-life of the compound listed here: NC(=O)C(=O)N1CCC(CC(=O)N2CCC([C@H]3c4ncc(Br)cc4CCc4cc(Cl)cc(Br)c43)CC2)CC1
66

Name the recorded half-life of the compound listed here: O=C(CC1CCN(C(=O)Cn2cncn2)CC1)N1CCC([C@H]2c3ncc(Br)cc3CCc3cc(Cl)cc(Br)c32)CC1
16.8

Name the recorded half-life of the compound listed here: CN(C)S(=O)(=O)N1CCC(CC(=O)N2CCC([C@H]3c4ncc(Br)cc4CCc4cc(Cl)cc(Br)c43)CC2)CC1
78

Name the recorded half-life of the compound listed here: NC(=O)N1CCC(CC(=O)N2CCC([C@H]3c4ncc(Br)cc4CCc4cc(Cl)cc(Br)c43)CC2)CC1
84

Name the recorded half-life of the compound listed here: O=C(CC1CCN(C(=O)c2ccc[n+]([O-])c2)CC1)N1CCC([C@H]2c3ncc(Br)cc3CCc3cc(Cl)cc(Br)c32)CC1
85.2
